biological target: Recombinant Human MMP-13 (Homo sapiens, UniProt P45452); construct: purchased R&D systems 511-MM; assay: MMP-13 inhibitory activity (MMP-13 specific fluorescent substrate with quencher); type: biochemical; details: Experimental Example 3; read-out: IC50 MMP13
pIC50: −log10 of the molar value.
readoutName: pIC50

Example entries and their recorded answers appear below.
compound	assayValue
C[C@]1(c2ccccc2)C[C@@]1(NS(=O)(=O)c1ccc(-c2ccc3c(c2)OCO3)s1)C(=O)O [Example 2-449]	> 7.00
CN(C)C(=O)CSCC1(c2ccccc2)CC1(NS(=O)(=O)c1ccc(-c2ccc(Cl)cc2)s1)C(=O)O (stereo not shown) [Example 2-357]	> 7.00
CCCC(=O)NCC1(c2ccccc2)CC1(NS(=O)(=O)c1ccc(-c2ccc(Cl)cc2)s1)C(=O)O (stereo not shown) [Example 2-377]	> 6.00
Cc1cc(-c2ccc(S(=O)(=O)N[C@@]3(C(=O)O)C(C)[C@@H]3c3ccccc3)s2)no1 (stereo partly shown) [Example 2-374]	> 7.00
C[C@]1(c2ccc(Cl)cc2)C[C@@]1(NS(=O)(=O)c1ccc(-c2cc(C(F)(F)F)on2)s1)C(=O)O [Example 2-620]	> 7.00
CCC1[C@H](c2ccccc2)[C@]1(NS(=O)(=O)c1ccc(-c2cc(C(F)(F)F)on2)s1)C(=O)O (stereo partly shown) [Example 2-328]	> 7.00
CC1[C@H](c2ccccc2)[C@]1(NS(=O)(=O)c1ccc(-n2cc(C(C)(C)O)cn2)s1)C(=O)O (stereo partly shown) [Example 2-523]	> 7.00
O=C(CCO)NCC1(c2ccccc2)CC1(NS(=O)(=O)c1ccc(-c2ccc(Cl)cc2)s1)C(=O)O (stereo not shown) [Example 2-395]	> 6.00
CC1[C@H](c2ccccc2)[C@]1(NS(=O)(=O)N1CCN(c2ccc(Cl)c(F)c2)CC1)C(=O)O (stereo partly shown) [Example 2-459]	> 7.00
C[C@]1(c2ccccc2)C[C@@]1(NS(=O)(=O)c1ccc(-c2cc(C(F)F)on2)s1)C(=O)O [Example 2-382]	> 6.00

Which pIC50 is reported for this compound? CC1[C@H](c2ccccc2)[C@]1(NS(=O)(=O)c1ccc(-c2cc(C(N)=O)on2)s1)C(=O)O (stereo partly shown) [Example 2-578]
> 7.00

Which pIC50 is reported for this compound? O=C(Cc1ccc([C@@H]2C[C@]2(NS(=O)(=O)c2ccc(-c3cc(C(F)(F)F)on3)s2)C(=O)O)cc1)N1CCOCC1 [Example 2-291]
> 7.00

Which pIC50 is reported for this compound? O=C(NCCO)OCC1(c2ccccc2)CC1(NS(=O)(=O)c1ccc(-c2cc(C(F)(F)F)on2)s1)C(=O)O (stereo not shown) [Example 2-333]
> 6.00

---

This section presents molecules with their documented IC50 values.
biological target: MMP-1 (Homo sapiens); assay: MMP-1 inhibitory action (Type I collagen Activity Measurement kit, FITC-labeled collagen type I); assay type: biochemical; settings: MMP-1 inhibitory action, FITC-labeled collagen type I, 37° C. for 3 hr; read-out: IC50 MMP1 (Experimental Example 2)
Sequence (P03956 100-469, species assumed): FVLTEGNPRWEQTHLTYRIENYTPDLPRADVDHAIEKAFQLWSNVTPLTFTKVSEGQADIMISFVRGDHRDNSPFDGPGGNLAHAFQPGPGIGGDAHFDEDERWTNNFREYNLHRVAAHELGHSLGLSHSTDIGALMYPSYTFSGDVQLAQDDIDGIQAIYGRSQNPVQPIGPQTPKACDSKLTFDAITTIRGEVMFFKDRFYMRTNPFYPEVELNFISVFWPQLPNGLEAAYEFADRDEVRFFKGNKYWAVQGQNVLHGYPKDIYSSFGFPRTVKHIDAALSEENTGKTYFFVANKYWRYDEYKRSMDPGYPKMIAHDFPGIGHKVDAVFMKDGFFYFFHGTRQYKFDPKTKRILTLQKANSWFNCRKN

Example entries and their recorded answers appear below.
molecule	IC50
O=C(CCc1cccc(C2CC2(NS(=O)(=O)c2ccc(-c3ccc(Cl)cc3)s2)C(=O)O)c1)N1CCOCC1 (stereo not shown)	≥ 1 µM
Cc1nc(-c2ccc(S(=O)(=O)NC3(C(=O)O)CC3c3ccccc3)s2)co1 (stereo not shown)	≥ 10 µM

Which IC50 is reported for this molecule? O=C(CN1CCOCC1)Nc1cccc(C2CC2(NS(=O)(=O)c2ccc(-c3ccc(Cl)cc3)s2)C(=O)O)c1 (stereo not shown)
≥ 10 µM

Which IC50 is reported for this molecule? O=C(O)C1(CS(=O)(=O)N2CCN(c3ccc(Cl)cc3)CC2)CC1c1ccccc1 (stereo not shown)
≥ 10 µM

Which IC50 is reported for this molecule? O=C(Nc1ccccc1)c1ccc(S(=O)(=O)NC2(C(=O)O)CC2c2ccccc2)s1 (stereo not shown)
≥ 10 µM

---

molecular target: Recombinant Human MMP-13 (Homo sapiens); construct: purchased R&D systems 511-MM; assay: MMP-13 inhibitory activity (MMP-13 specific fluorescent substrate with quencher); type: biochemical; conditions: Experimental Example 3; read-out: IC50 MMP13
This section presents compounds with their documented IC50 values.

compound	readoutName	assayValue
CN(C)C(=O)Cc1ccc([C@@H]2C[C@]2(NS(=O)(=O)c2ccc(-c3cc(C(F)(F)F)on3)s2)C(=O)O)cc1	IC50	< 100 nM
CC1(c2cccnc2)CC1(NS(=O)(=O)c1ccc(-c2cc(C(F)(F)F)on2)s1)C(=O)O (stereo not shown)	IC50	≥ 1000 nM
C[C@]1(c2ccccc2)C[C@@]1(NS(=O)(=O)c1ccc(/C=C/C(F)(F)F)s1)C(=O)O	IC50	≥ 1000 nM

Lab note: need IC50 with Recombinant Human MMP-13 (Homo sapiens) for entry O=C(O)C1(NS(=O)(=O)c2ccc(-c3ccc(Cl)cc3)s2)C2CCc3ccccc3C21 (stereo not shown) , please look it up.
< 100 nM

---

target: Recombinant Human MMP-13 (Homo sapiens); construct: purchased R&D systems 511-MM; test: MMP-13 inhibitory activity (MMP-13 specific fluorescent substrate with quencher); format: biochemical; conditions: Experimental Example 3; read-out: IC50 MMP13
pIC50: −log10 of the molar value.
This section presents compounds with their documented pIC50 values.

Example entries and their recorded answers appear below.
compound	readoutName	assayValue
CC1[C@H](c2ccccc2)[C@]1(NS(=O)(=O)N1CCN(c2ccc(Br)cc2)CC1)C(=O)O (stereo partly shown) [Example 2-458]	pIC50	> 7.00
CC1[C@H](c2ccccc2)[C@]1(NS(=O)(=O)N1CCN(CCc2ccccc2)CC1)C(=O)O (stereo partly shown) [Example 2-531]	pIC50	≤ 6.00
CC1[C@H](c2ccccc2)[C@]1(NS(=O)(=O)N1CCN(c2ccc(C(F)(F)F)cc2)C(=O)C1)C(=O)O (stereo partly shown) [Example 2-504]	pIC50	> 6.00
CC1[C@H](c2ccccc2)[C@]1(NS(=O)(=O)c1ccc(-c2cn3cccnc3n2)s1)C(=O)O (stereo partly shown) [Example 2-571]	pIC50	> 6.00
CC1C(NS(=O)(=O)c2ccc(-c3cc(C(F)(F)F)on3)s2)(C(=O)O)C1(C)c1ccccc1 (stereo not shown) [Example 2-598]	pIC50	> 6.00

Which pIC50 is reported for this compound? COc1cccc(C2(C)CC2(NS(=O)(=O)c2ccc(-c3cc(C(F)(F)F)on3)s2)C(=O)O)c1 (stereo not shown) [Example 2-610]
≤ 6.00

Which pIC50 is reported for this compound? CC1C(c2ccccc2)C1(NS(=O)(=O)c1ccc(-c2cccc(CO)c2)s1)C(=O)O (stereo not shown) [Example 2-525]
> 7.00

---

This section presents compounds with their documented IC50 values.
biological target: Recombinant Human MMP-13 (Homo sapiens); construct: purchased R&D systems 511-MM; assay: MMP-13 inhibitory activity (MMP-13 specific fluorescent substrate with quencher); assay type: biochemical; details: Experimental Example 3; read-out: IC50 MMP13

Example entries and their recorded answers appear below.
compound	IC50
Cc1cc(-c2ccc(S(=O)(=O)NC3(C(=O)O)C4CCCc5ccccc5C43)s2)no1 (stereo not drawn)	< 100 nM
CC(C)C(=O)NCCCC1(c2ccccc2)CC1(NS(=O)(=O)c1ccc(-c2ccc(Cl)cc2)s1)C(=O)O (stereo not drawn)	< 100 nM
NC(=O)CCc1ccc([C@H]2C[C@@]2(NS(=O)(=O)c2ccc(-c3cc(C(F)(F)F)on3)s2)C(=O)O)cc1	< 100 nM
O=C(NCC1(c2ccccc2)CC1(NS(=O)(=O)c1ccc(-c2ccc(Cl)cc2)s1)C(=O)O)c1ccccn1 (stereo not drawn)	< 1000 nM
O=C(NCC1(c2ccccc2)CC1(NS(=O)(=O)c1ccc(-c2ccc(Cl)cc2)s1)C(=O)O)C1CC1 (stereo not drawn)	< 1000 nM

Next, consider the following compound.
Which IC50 is reported for this compound? `C[C@]1(c2ccccc2)C[C@@]1(NS(=O)(=O)c1ccc(-c2ccc(Cl)c([N+](=O)[O-])c2)s1)C(=O)O`
≥ 1000 nM

---

This section presents compounds with their documented IC50 values.
molecular target: Recombinant Human MMP-13 (Homo sapiens); construct: purchased R&D systems 511-MM; test: MMP-13 inhibitory activity (MMP-13 specific fluorescent substrate with quencher); assay type: biochemical; details: Recombinant Human MMP-13, fluorescent substrate, 25° C. for 1 h; read-out: IC50 MMP13 (Experimental Example 3)

Example entries and their recorded answers appear below.
compound	assayValue
O=C(OCCc1ccccc1C1CC1(NS(=O)(=O)c1ccc(-c2cc(C(F)(F)F)on2)s1)C(=O)O)N1CCOCC1 (stereo not drawn)	< 0.1 µM
O=C(O)[C@]1(NS(=O)(=O)c2ccc(-c3cc(C(F)(F)C(F)(F)F)on3)s2)C[C@@H]1c1ccccc1	< 1 µM
O=C(O)[C@]1(NS(=O)(=O)c2ccc(-c3ccc(Cl)cc3)s2)C[C@@H]1c1cccc(CO)c1	< 0.1 µM
O=C(O)C1(NS(=O)(=O)N2CCN(c3cccc(C(F)(F)F)c3)CC2)CC1c1ccccc1 (stereo not drawn)	≥ 10 µM
CC(=O)N1CC=C(c2ccc(S(=O)(=O)N[C@@]3(C(=O)O)C[C@@H]3c3ccccc3)s2)CC1	≥ 1 µM

Which IC50 is reported for this compound? CN(C)C(=O)c1ccc(C2CC2(NS(=O)(=O)c2ccc(-c3cc(C(F)(F)F)on3)s2)C(=O)O)cc1 (stereo not drawn)
< 1 µM

Which IC50 is reported for this compound? CC(=O)c1ccc(S(=O)(=O)NC2(C(=O)O)CC2c2ccccc2)s1 (stereo not drawn)
≥ 1 µM

Which IC50 is reported for this compound? O=C(c1ccc(Cl)cc1)N1CCN(S(=O)(=O)NC2(C(=O)O)CC2c2ccccc2)CC1 (stereo not drawn)
≥ 10 µM

Which IC50 is reported for this compound? `Cc1ncc(-c2ccc(S(=O)(=O)N[C@@]3(C(=O)O)C[C@@H]3c3ccccc3)s2)s1`
≥ 10 µM

Which IC50 is reported for this compound? O=C(O)C1(NS(=O)(=O)N2CCC(Oc3ccc(C(F)(F)F)cc3)CC2)CC1c1ccccc1 (stereo not drawn)
≥ 1 µM

Which IC50 is reported for this compound? `Cc1cnn(-c2ccc(S(=O)(=O)N[C@@]3(C(=O)O)C[C@@H]3c3ccccc3)s2)c1`
< 0.1 µM

Which IC50 is reported for this compound? CC(C)(CO)NC(=O)c1cccc(C2CC2(NS(=O)(=O)c2ccc(-c3ccc(Cl)cc3)s2)C(=O)O)c1 (stereo not drawn)
< 0.1 µM

Recorded values, source patent US20080261994A1.
